- test: gradient 5% acetonitrile 3 min, to 50% in 2 min, to 85% in 15 min, held 3 min, 100 µL/min
- experimental-context: column: Zorbax Extend-C18 2.1 x 50 mm; eluents: water / acetonitrile, 0.1% formic acid
parameter: RP-LC retention time (s)

Consider the worked cases shown below.
molecule=Cc1nc(-c2csc(S(=O)(=O)N3CCC(C(=O)NCCc4ccc(Cl)cc4)CC3)c2)no1 result=938
molecule="Cc1cc(C2CCCN2C(=O)Nc2ccccc2C(F)(F)F)no1 (stereo not given)" result=895
molecule=O=c1c2cc(-c3ccc4c(c3)OCO4)nn2ccn1Cc1ccc(F)cc1 result=986
molecule=COc1cccc(NC(=O)N2CCC(CC(=O)N3CCCCC3)CC2)c1 result=718
molecule="CCCCN1C(=O)C(CC(=O)N2CCOCC2)Sc2ncccc21 (stereo not given)" result=708
molecule=CN(C)C(=O)CCc1ccc2c(c1)CN(C(=O)CC1CCCC1)CCO2 result=781
molecule=COc1ccccc1CN1C[C@@H]2C(=O)N(Cc3ccc4c(c3)OCO4)C(=O)[C@@H]2C1 result=724
molecule=N#Cc1cnc2ccc(F)cc2c1N1CCC(C(=O)N2CCSCC2)CC1 result=766

I: O=C(NCCCN1CCN(Cc2ccccc2)CC1)c1cn2c3c(ccc(Cl)c3c1=O)OCC2
II: O=C1C(Cl)=C(NCCc2ccccc2)C(=O)c2ccccc21
Ask | Sorting by RP-LC retention time in descending order, would I or II appear first? Reply briefly: the label of your chosen item.
Reply | II
(II: 1190 s, I: 634 s)

Data credit: the METLIN SMRT retention time set (Domingo-Almenara et al. 2019)
